target.or.system: HCV polymerase (NS5B570n-Con1) (Hepatitis C virus genotype 1b, UniProt Q9WMX2)
Construct: contains a 21 amino acid deletion at the C-terminus relative to the full-length HCV polymerase; 6-histidine (N)
assay: HCV NS5B RNA Polymerase Activity
pIC50: −log10 of the molar value.
Given measured pIC50, output 1 (yes) if it is greater than or equal to 8 and 0 (no) if not.

# smiles.entry, label
rows = [
    ("COc1ccc(-c2cc(C(C)(C)C)cc3nc(-c4ccc(NS(C)(=O)=O)cc4Cl)cnc23)c(=O)[nH]1", "1 (yes)"),
    ("COc1c(C(C)(C)C)cc(-c2ccc[nH]c2=O)c2ncc(-c3ccc(NS(C)(=O)=O)cc3)cc12", "1 (yes)"),
    ("COc1c(C(C)(C)C)cc(N2CCC(=O)NC2=O)c2ncc(-c3ccc(NS(C)(=O)=O)cc3)cc12", "1 (yes)"),
    ("COc1ccc(-c2cc(C(C)(C)C)cc3nc(-c4ccc(NS(C)(=O)=O)cc4F)cnc23)c(=O)[nH]1", "1 (yes)"),
    ("Cc1nc2c(-c3ccc[nH]c3=O)cc(C(C)(C)C)cc2nc1-c1ccc(NS(C)(=O)=O)cc1", "0 (no)"),
    ("COc1c(C(C)(C)C)cc(-c2ccc[nH]c2=O)c2ncc(-c3ccc(N)nc3)cc12", "1 (yes)"),
    ("COc1ccc(-c2cc(CC(F)(F)F)c(OC)c3cc(-c4ccc(NS(C)(=O)=O)cc4)cnc23)c(=O)[nH]1", "1 (yes)"),
    ("CC(C)(C)c1cc(-c2ccc[nH]c2=O)c2ncc(-c3ccc(NS(C)(=O)=O)cc3Cl)nc2c1", "1 (yes)"),
    ("COc1c(C(C)(C)C)cc(-c2c[nH]c(=O)[nH]c2=O)c2ncc(-c3ccc(NS(C)(=O)=O)cc3)cc12", "1 (yes)"),
    ("CC(C)(C)c1cc(-c2cc(F)c[nH]c2=O)c2ncc(N3CCC(NS(C)(=O)=O)CC3)cc2c1", "0 (no)"),
]
